CTG-3D luminescence at 96 h overview
# System: HCI-016 (organoid from a triple-negative breast cancer xenograft)
# Experiment summary: CTG-3D luminescence at 96 h relative to day-0 seeding control (ratio to day 0); higher = more growth / less cytotoxicity; PDxO 3D drug screen, 96 h, CTG-3D normalised to day-0 seeding control.
# Condition summary: 12.5 pM; days in culture: 199

| Molecule | CTG-3D luminescence at 96 h |
| --- | --- |
| NC1(C(=O)N[C@@H](CCO)c2ccc(Cl)cc2)CCN(c2nc[nH]c3nccc2-3)CC1 [capivasertib] | 1.58 |
| C[C@]12CC[C@@H]3c4ccc(O)cc4C[C@@H](CCCCCCCCC[S+]([O-])CCCC(F)(F)C(F)(F)F)[C@H]3[C@@H]1CC[C@@H]2O (stereo partly drawn) [fulvestrant] | 1.92 |
| Nc1ccn([C@@H]2O[C@H](CO)[C@@H](O)C2(F)F)c(=O)n1 [gemcitabine] | 1.57 |
| O=C(c1ccc(F)c(F)c1Nc1ccc(I)cc1F)N1CC(O)([C@@H]2CCCCN2)C1 [cobimetinib] | 1.61 |
| CS(=O)(=O)c1ccc(C(=O)Nc2ccc(Cl)c(-c3ccccn3)c2)c(Cl)c1 [vismodegib] | 2.04 |
| C[C@H](NC(=O)CCC(F)(F)F)C(=O)N[C@@H]1C(=O)N(CCO)c2ncccc2-c2ccccc21 [crenigacestat] | 1.48 |
| CCc1c2c(nc3ccc(O)cc13)-c1cc3c(c(=O)n1C2)COC(=O)[C@]3(O)CC [SN-38] | 1.87 |
| COc1cc2c(Oc3ccc4[nH]c(C)cc4c3F)ncnc2cc1OCCCN1CCCC1 [cediranib] | 1.23 |

----------
# Tested on: HCI-016
# Experiment summary: CTG-3D luminescence at 96 h relative to day-0 seeding control (ratio to day 0); higher = more growth / less cytotoxicity; PDxO 3D drug screen, 96 h, CTG-3D normalised to day-0 seeding control.
# Condition summary: 100 µM; days in culture: 172

| Smiles code | System | CTG-3D luminescence at 96 h |
| --- | --- | --- |
| Cc1cc(Nc2ncc(Cl)c(Nc3ccccc3S(=O)(=O)C(C)C)n2)c(OC(C)C)cc1C1CCNCC1 | HCI-016 | -0.00483 |
| CNC(=O)c1cccc(-c2ccc3c(N4CCOC[C@@H]4C)nc(N4CCOC[C@@H]4C)nc3n2)c1 | HCI-016 | 0.424 |
| CCN1CCN(Cc2ccc(Nc3ncc(F)c(-c4cc(F)c5nc(C)n(C(C)C)c5c4)n3)nc2)CC1 | HCI-016 | 0.0115 |
| CCc1c2c(nc3ccc(O)cc13)-c1cc3c(c(=O)n1C2)COC(=O)[C@]3(O)CC | HCI-016 | 0.019 |
| CC(=O)O[C@H]1C(=O)[C@@]2(C)[C@H]([C@H](OC(=O)c3ccccc3)[C@]3(O)C[C@H](OC(=O)[C@H](O)[C@@H](NC(=O)c4ccccc4)c4ccccc4)C(C)=C1C3(C)C)[C@]1(OC(C)=O)CO[C@@H]1C[C@@H]2O | HCI-016 | 0.505 |
| COc1cccc2c1C(=O)c1c(O)c3c(c(O)c1C2=O)C[C@@](O)(C(=O)CO)C[C@@H]3O[C@H]1C[C@H](N)[C@H](O)[C@H](C)O1 | HCI-016 | 0.0359 |
